Values compiled from ChEMBL document CHEMBL3112509.

Catalogue of zone of inhibition at 100 µg/disc values
System: Penicillium chrysogenum
methodDescription: Antifungal activity against Penicillium chrysogenum at 100 ug/well after 48 hrs by agar well diffusion method
Assay type: functional
conditionNotes: read-out: DIZ
Report only the number, with the unit mm understood.

- O=S(=O)(c1ccccc1)c1c(-c2ccc(Cl)cc2)nn(-c2ccccc2)c1-c1ccc(-c2c(S(=O)(=O)c3ccccc3)c(-c3ccc(Cl)cc3)nn2-c2ccccc2)cc1: 30
- COc1ccc(-c2nn(-c3ccccc3)c(-c3ccc(-c4c(S(=O)(=O)c5ccc(Cl)cc5)c(-c5ccc(OC)cc5)nn4-c4ccccc4)cc3)c2S(=O)(=O)c2ccc(Cl)cc2)cc1: 26

[Q] Find the measured zone of inhibition at 100 µg/disc: item O=S(=O)(c1ccccc1)C1C(c2ccc(Cl)cc2)=NOC1c1ccc(C2ON=C(c3ccc(Cl)cc3)C2S(=O)(=O)c2ccccc2)cc1 (stereo not drawn) , target or system Penicillium chrysogenum.
[A] 22
